Hey, just so you know, these numbers are from PubChem BioAssay.

assay: yeast TOR pathway reporter LAP4-GFP change – cell-based, cherry picks, flow cytometry, mother/daughter gates, confirmation (AID 2271);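 note: ratio of sample to DMSO plate mean so 100% equals DMSO level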; details: S. cerevisiae LAP4-GFP strain, 3 h, measured here: daughter cell gate response, at 10 µM, stronger effect = higher value, 100 means same as DMSO control

compound	GFP response relative to DMSO
N=c1c(C(=O)NCc2ccco2)cc2c(=O)n3ccccc3nc2n1CCc1ccccc1	99.2%
O=C1c2ccccc2-c2onc3ccc(Oc4ccccc4)c1c23	136%
N#C/C(C(N)=O)=c1/ccc2c(c1)N1C3=C(CCCC3)CC3CCCCC31N=2 (stereo not given)	115%
CC(C)(C)c1ccc(C(=O)CC(Sc2ccc(Cl)cc2)C(=O)O)cc1 (stereo not given)	112%
C[C@H]1C[C@@H]2[C@H]([C@@H](O)C[C@@]3(C)[C@H]2CC[C@]3(O)C(=O)CO)[C@@]2(C)C=CC(=O)C=C12	102%
O=C(C#Cc1cccc([N+](=O)[O-])c1)c1ccccc1	167%
O=C(O)Cc1ccc(-c2ccccc2)cc1	116%
COc1ccc(-c2noc(-c3ccccc3-c3ccccc3)n2)cc1	95.9%
O=C(NC1CCCCC1)N1CCc2[nH]c3ccccc3c2C1	97.6%
O=c1cc(-c2ccccc2)oc2cc(OCc3ccccc3)cc(O)c12	97.6%
